- Tested on: HepaRG
- protocol.details: LDH release cytotoxicity, % of total lysis control; higher = more cytotoxic
- test.conditions: 0.1 µM; 48 h
Counter-ions that a name gives are not always drawn.
Listed compounds paired with reported LDH release cytotoxicity
observable: LDH release cytotoxicity (%)

compound: CCC(C)c1ccccc1O (stereo unspecified)
observable: LDH release cytotoxicity
numeric.readout: -1.12
--
compound: Cc1ncc(C(CCCCCCc2ccc3c(n2)NCCC3)CC(=O)O)cn1 (stereo unspecified)
observable: LDH release cytotoxicity
numeric.readout: -1.82
--
compound: O=[N+]([O-])c1ccc(O)cc1
observable: LDH release cytotoxicity
numeric.readout: -1.48
--
compound: CN(C)CCCN1c2ccccc2Sc2ccc(Cl)cc21 [Chlorpromazine hydrochloride]
observable: LDH release cytotoxicity
numeric.readout: -1.97
--
compound: CCC(=C(c1ccccc1)c1ccc(OCCN(C)C)cc1)c1ccccc1
observable: LDH release cytotoxicity
numeric.readout: -0.968
--
compound: CS(=O)(=O)OCCCCOS(C)(=O)=O
observable: LDH release cytotoxicity
numeric.readout: -0.871
--
compound: Cc1cc(Cl)ccc1OCC(=O)O
observable: LDH release cytotoxicity
numeric.readout: -0.914
--
compound: COCC(C)OCC(C)OCC(C)O (stereo unspecified)
observable: LDH release cytotoxicity
numeric.readout: -2.37
--
compound: COC(=O)CCCCC(=O)OC [Dimethyl adipate]
observable: LDH release cytotoxicity
numeric.readout: -1.11
--
compound: O=C1CCC(N2C(=O)c3ccccc3C2=O)C(=O)N1 (stereo unspecified) [Thalidomide]
observable: LDH release cytotoxicity
numeric.readout: -1.52
--
compound: Oc1ccccc1O
observable: LDH release cytotoxicity
numeric.readout: -1.71
--
compound: COP(=O)(NC(C)=O)SC (stereo unspecified) [Acephate]
observable: LDH release cytotoxicity
numeric.readout: -0.804
--
compound: Nc1ccc2ccccc2c1
observable: LDH release cytotoxicity
numeric.readout: -1.31
--
compound: c1cc2c3c(cccc3c1)CC2
observable: LDH release cytotoxicity
numeric.readout: -0.376
--
compound: CC(O)CN(CCN(CC(C)O)CC(C)O)CC(C)O (stereo unspecified) [1,1',1'',1'''-(Ethanediylnitrilo)tetrakis(2-propanol)]
observable: LDH release cytotoxicity
numeric.readout: -1.86
--
compound: CN(C)c1ccc(C(=O)c2ccc(N(C)C)cc2)cc1
observable: LDH release cytotoxicity
numeric.readout: -1.79
--
compound: OCC(O)CO
observable: LDH release cytotoxicity
numeric.readout: -1.11
--
compound: CC(=O)OCC(COC(C)=O)OC(C)=O
observable: LDH release cytotoxicity
numeric.readout: -3.22
--
compound: COCc1cnc(C2=NC(C)(C(C)C)C(=O)N2)c(C(=O)O)c1 (stereo unspecified)
observable: LDH release cytotoxicity
numeric.readout: -1.71
--
compound: CCCOC(=O)c1ccc(O)cc1
observable: LDH release cytotoxicity
numeric.readout: -0.55
--
compound: C#CC(C)(C)NC(=O)c1cc(Cl)cc(Cl)c1 [Propyzamide]
observable: LDH release cytotoxicity
numeric.readout: -0.106
--
compound: O=C(Oc1ccc(Br)cc1)N1CCN2CCC1CC2
observable: LDH release cytotoxicity
numeric.readout: -3.23
--
compound: Nc1ccc([N+](=O)[O-])cc1
observable: LDH release cytotoxicity
numeric.readout: -2.08
--
compound: O=C(N[C@H]1CN2CCC1CC2)c1cc2ccoc2cn1 [(R)-N-(Quinuclidin-3-yl)furo(2,3-C)pyridine-5-carboxamide]
observable: LDH release cytotoxicity
numeric.readout: 1.01
--
compound: CC(C)CCCCCCCOC(=O)c1ccccc1C(=O)OCCCCCCCC(C)C
observable: LDH release cytotoxicity
numeric.readout: -1.15
--
compound: CCOP(=S)(OCC)Oc1ccc2c(C)c(Cl)c(=O)oc2c1
observable: LDH release cytotoxicity
numeric.readout: -3.39
--
compound: c1ccc2c(c1)-c1cccc3cccc-2c13
observable: LDH release cytotoxicity
numeric.readout: -0.258
--
compound: c1ccc2c(c1)oc1ccccc12
observable: LDH release cytotoxicity
numeric.readout: -1.07
--
compound: O=C=NCCCCCCN=C=O
observable: LDH release cytotoxicity
numeric.readout: -0.852
--
compound: CCC(C)c1cc([N+](=O)[O-])cc([N+](=O)[O-])c1O (stereo unspecified)
observable: LDH release cytotoxicity
numeric.readout: 0.378
--
compound: Cc1ccc(-c2cc(C(F)(F)F)nn2-c2ccc(S(N)(=O)=O)cc2)cc1
observable: LDH release cytotoxicity
numeric.readout: -0.435
--
compound: C#CCOS(=O)OC1CCCCC1Oc1ccc(C(C)(C)C)cc1 (stereo unspecified)
observable: LDH release cytotoxicity
numeric.readout: -0.456
--
compound: Clc1nc(Cl)c(Cl)c(Cl)c1Cl
observable: LDH release cytotoxicity
numeric.readout: -1.54
--
compound: CC(Oc1ccc(Cl)cc1Cl)C(=O)O (stereo unspecified)
observable: LDH release cytotoxicity
numeric.readout: -0.49
--
compound: N#CSCSC#N [Methylene bis(thiocyanate)]
observable: LDH release cytotoxicity
numeric.readout: 0.474
--
compound: Cc1c(C)c2c(c(C)c1O)CCC(C)(COc1ccc(CC3SC(=O)NC3=O)cc1)O2 (stereo unspecified)
observable: LDH release cytotoxicity
numeric.readout: -0.342
--
compound: Cc1cc(C)c(O)c(C)c1
observable: LDH release cytotoxicity
numeric.readout: -0.527
--
compound: OCCOc1ccccc1
observable: LDH release cytotoxicity
numeric.readout: -0.772
--
compound: CCOP(=S)(OCC)SCn1c(=O)oc2cc(Cl)ccc21
observable: LDH release cytotoxicity
numeric.readout: -3.01
--
compound: NC(=O)c1nc(-c2cccc(-c3cc(F)ccc3OCC(F)(F)C(F)(F)F)c2)n[nH]1
observable: LDH release cytotoxicity
numeric.readout: -0.429
--
compound: O=c1[nH]cnc2c1ncn2C1CCC(CO)O1 (stereo unspecified)
observable: LDH release cytotoxicity
numeric.readout: -1.91
